# test: NCI Yeast Anticancer Drug Screen. Data for the wt2 strain (AID 169);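 also: 0% = growth of vehicle-treated yeast cultures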
# run.conditions: S. cerevisiae wt2 strain growth inhibition; at 3.7 µM; hits give high values
This is part of a sample that, as a whole, favours compounds with a hit. Of some 79,000 tested, about 15% had one in any assay.
endpoint.label: growth inhibition (%)
The reply should contain only the number, in %.

Ask | Recorded growth inhibition of O=C1CSC(c2cccc(Cl)c2)N1c1ccc(-c2ccc(-n3c(-c4ccccc4)nc4ccccc4c3=O)cc2)cc1 (stereo not given) , please.
Reply | -2

Ask | Now consider O=[N+]([O-])c1cccc2nc3ccccc3c(NCCC[N+]3([O-])CCCCC3)c12 and answer again.
Reply | 6

* * *

# test: NCI Yeast Anticancer Drug Screen. Data for the sgs1 strain (AID 173);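 also: 0% = growth of vehicle-only control cultures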
# run.conditions: S. cerevisiae sgs1 mutant, at 100.0 µM, hits give high values
The panel holds about 79,000 compounds, 15% with a hit somewhere; the sample as a whole holds those more often.
Returns one of fulfilled or not fulfilled; fulfilled when growth inhibition is >= 90%.

Solved entries:
Ask | Quick check, growth inhibition >= 90%? CC(=O)Nc1ccc2c(c1)-c1ccccc1C2=O
Reply | not fulfilled

Ask | Now consider CC(C)(C)[Si](C)(C)OCC1CCC(n2cnc3c(NC(=O)c4ccccc4)ncnc32)O1 (stereo not given) and answer again.
Reply | not fulfilled

Ask | Now consider Oc1ccc(SCc2ccc(NCc3ccccc3)cc2)cc1 and answer again.
Reply | not fulfilled

Ask | Now consider CSc1nnc(SC)nn1 and answer again.
Reply | fulfilled

Ask | Now consider CCOC(=O)CC1(C(=O)OCC)c2[nH]c3ccccc3c2CCN1Cc1ccccc1 (stereo not given) and answer again.
Reply | not fulfilled

More entries:
Ask | Quick check, growth inhibition >= 90%? C[C@]12CC[C@H](O)CC1=CC[C@@H]1C2CC[C@]2(C)C(=O)NC(=O)CC12 (stereo not given in full)
Reply | fulfilled

Ask | Now consider Clc1ccc(NCNC2Nc3ccccc3N2)cc1Cl and answer again.
Reply | fulfilled

* * *

# test: NCI Yeast Anticancer Drug Screen. Data for the wt2 strain (AID 169);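 also: 0% = growth of vehicle-treated yeast cultures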
# run.conditions: S. cerevisiae wt2 strain growth inhibition; at 11.0 µM; hits give high values
About 79,000 compounds went through this panel and 15% of them were active in at least one assay; those are over-represented in the sample as a whole. Activity calls are given as the source filed them. Rule as the data show it: active = growth inhibition above about 70%; inactive = the rest.
endpoint.label: growth inhibition

Below, each entry is followed by its recorded growth inhibition result.
Ask | Recorded growth inhibition of O=C1CSC(c2cccc(Cl)c2)N1c1ccc(-c2ccc(-n3c(-c4ccccc4)nc4ccccc4c3=O)cc2)cc1 (stereo not given) , please.
Reply | 0% (inactive)

Ask | Now consider Cc1cc(N(CCOS(C)(=O)=O)CCOS(C)(=O)=O)ccc1C=Nc1ccc(-c2csc(-c3ccccc3)n2)c(Cl)c1 and answer again.
Reply | 72% (active)

Ask | Now consider Clc1ccc(NCNC2Nc3ccccc3N2)cc1Cl and answer again.
Reply | 9% (inactive)

Ask | Now consider CCCCCCCCCCCCCCCCCC(=O)NCCCN(C)C and answer again.
Reply | -37% (inactive)

With those in mind, consider the next compound.
Ask | Recorded growth inhibition of CCOc1ccccc1N=Cc1c2ccccc2cc2ccccc12 , please.
Reply | 96% (active)

* * *

# growth inhibition listing for each entry below
# test: NCI Yeast Anticancer Drug Screen. Data for the mlh1 rad18 strain (AID 175)
# run.conditions: S. cerevisiae mlh1 rad18 strain growth inhibition; at 50.0 µM; hits give high values
This is part of a sample that, as a whole, favours compounds with a hit. Of some 79,000 tested, about 15% had one in any assay.
The reply should contain only the number, in %.

Below, each entry is followed by its recorded growth inhibition result.
Ask | Recorded growth inhibition of CCOC(=O)C(Br)C(Br)c1ccccc1Cl (stereo unspecified) , please.
Reply | 99.5

Ask | Now consider O=Cc1ccc2c(c1)C(=O)c1ccccc1C2=O and answer again.
Reply | 67.8

Ask | Now consider Cc1c(C)c(C)c(CSC(=N)N)c(C)c1C and answer again.
Reply | 92.3

Ask | Now consider Cc1nc2ccc(N=NN(C)C)cc2[nH]1 and answer again.
Reply | 89

Ask | Now consider CCOC(=O)C(C(=O)OCC)=P(c1ccccc1)(c1ccccc1)c1ccccc1 and answer again.
Reply | 21.1

More entries:
Ask | Recorded growth inhibition of O=C1C=C(N2CCN(c3ccccn3)CC2)C(=O)c2c(O)ccc(O)c21 , please.
Reply | 72.5

* * *

# test: NCI Yeast Anticancer Drug Screen. Data for the wt2 strain (AID 169);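 also: 0% = growth of vehicle-treated yeast cultures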
# run.conditions: S. cerevisiae wt2 strain growth inhibition; at 33.0 µM; hits give high values
Compounds without any hit were thinned out: in the full panel of roughly 79,000, 15% have a hit.
endpoint.label: growth inhibition (%)
The reply should contain only the number, in %.

Ask | Recorded growth inhibition of C/C=C/SC(=Nc1ccccc1)Nc1ccccc1 , please.
Reply | -9

Ask | Now consider O=C1C=C(N2CCN(c3ccccn3)CC2)C(=O)c2c(O)ccc(O)c21 and answer again.
Reply | 32

Ask | Now consider Cc1ccc2c3ccc4c(c3n(C)c2c1)C(=O)C=CC4=O and answer again.
Reply | -29

Ask | Now consider Cc1c2cccc(Sc3ccccc3)c2c2c3c(cccc13)[S+](c1ccccc1)C2 (configuration not stated) and answer again.
Reply | 95

Ask | Now consider O=C1C=C(Cl)C(=O)C(c2ccc(Cl)cc2)=C1 and answer again.
Reply | 94

Ask | Now consider O=c1ccc2ccccc2c2ccccc12 and answer again.
Reply | 98

Ask | Now consider O=C(O)c1ccccc1/C=N/N=C1c2ccccc2-c2ccccc21 and answer again.
Reply | 0

Ask | Now consider N#CNC(N)=Nc1cc2ccccc2c2ccccc12 and answer again.
Reply | 89

Ask | Now consider CC(C)=NOC(=O)Nc1ccc(Cl)cc1 and answer again.
Reply | 5

Ask | Now consider O=c1c2ccccc2nc(-c2ccccc2)n1O and answer again.
Reply | 98

More entries:
Ask | Recorded growth inhibition of Cc1nc2c(Br)cc(Br)cc2c(=O)n1-c1ccccc1NC1OCC(O)C(O)C1O (configuration not stated) , please.
Reply | 43

Ask | Now consider O=C(CSC(=S)N1CCCCC1)Nc1nc2c(s1)CCCC2 and answer again.
Reply | 22

* * *

# test: NCI Yeast Anticancer Drug Screen. Data for the wt1 strain (AID 149);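 also: 0% = growth of vehicle-treated wt1 cultures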
# run.conditions: S. cerevisiae wt1 strain (SPY 50644) growth inhibition; at 1.2 µM; hits give high values
# Experimental: Growth inhibition of yeast strains with defined genetic alterations is measured as a screen for potential anti-cancer activity. Selected strains with alterations in DNA damage repair or cell cycle control were exposed to compounds and growth inhibition was measured relative to vehicle treated controls. The strain used in this assay is wt1
Compounds without any hit were thinned out: in the full panel of roughly 79,000, 15% have a hit. The source made the active and inactive calls. No stated cut-off is given here; in the data, active means growth inhibition above about 70%; inactive means the rest.
# growth inhibition listing for each entry below

Below, each entry is followed by its recorded growth inhibition result.
Ask | Recorded growth inhibition of Cc1sc2ccc3ccccc3c2[n+]1C , please.
Reply | -21% (inactive)

Ask | Now consider NC(=O)c1c([N+](=O)[O-])cc(C(F)(F)F)cc1[N+](=O)[O-] and answer again.
Reply | 0% (inactive)

Ask | Now consider COc1oc(C(=O)NC2CCCCC2)c(-c2ccc(Cl)cc2)c1S(=O)(=O)c1ccccc1 and answer again.
Reply | -19% (inactive)

Ask | Now consider CCc1cc(O)c(Cl)c(C)c1Cl and answer again.
Reply | 7% (inactive)

Ask | Now consider O=C(NO)Nc1cc(Cl)cc(Cl)c1 and answer again.
Reply | -3% (inactive)

Ask | Now consider CN(C)c1ccc(C2CC(C)(O)Oc3cc4c(cc32)OCO4)cc1 (configuration not stated) and answer again.
Reply | 0% (inactive)

Ask | Now consider CC(C)(C)[Si](C)(C)OCC1CCC(n2cnc3c(NC(=O)c4ccccc4)ncnc32)O1 (configuration not stated) and answer again.
Reply | 0% (inactive)

Ask | Now consider O=C(O)CNC(=S)Nc1ccccc1 and answer again.
Reply | -52% (inactive)

With those in mind, consider the next compound.
Ask | Recorded growth inhibition of CC(=O)Nc1ccc2c(c1)-c1ccccc1C2=O , please.
Reply | -2% (inactive)

* * *

# test: NCI Yeast Anticancer Drug Screen. Data for the mlh1 strain (AID 171);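 also: 0% = growth of vehicle-treated control cultures of the same strain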
# run.conditions: S. cerevisiae mlh1 strain growth inhibition; at 100.0 µM
About 79,000 compounds went through this panel and 15% of them were active in at least one assay; those are over-represented in the sample as a whole. Calls of active or inactive are those of the source. No stated cut-off is given here; in the data, active means growth inhibition above about 70%; inactive means the rest.
Answer with one of the outcomes given here: YES (active), NO (inactive)

Solved entries:
Ask | Assay outcome for Clc1ccc(NCNC2Nc3ccccc3N2)cc1Cl : what was it?
Reply | YES

Ask | Now consider O=C1N=C2SC=C(NC(=S)Nc3ccccc3)N2NC12c1ccccc1-c1ccccc12 and answer again.
Reply | YES

Ask | Now consider Nc1nc(N)c2nc(CNc3ccc(C(=O)NC(CCC(=O)O)C(=O)O)cc3F)cnc2n1 (configuration not stated) and answer again.
Reply | NO

Ask | Now consider Nc1nc2ccc(NCc3ccc(C(=O)NC(CCC(=O)O)C(=O)O)cc3)cc2c(=O)[nH]1 (configuration not stated) and answer again.
Reply | NO

Ask | Now consider O=C(Nc1ccc(Cl)cc1)Nc1nnc2nc(C(C(=O)c3cccc([N+](=O)[O-])c3Cl)c3nc4nnc(NC(=O)Nc5ccc(Cl)cc5)n4[nH]c3=O)c(=O)[nH]n12 and answer again.
Reply | NO

Attention now shifts to the item below.
Ask | Assay outcome for O=c1c2ccccc2nc(-c2ccccc2)n1O : what was it?
Reply | YES
